Origin of measurements: PubChem BioAssay (NCI)

# System: DU-145 prostate
# procedure.details: NCI tumour cell line growth inhibition, 48 h
Where a SMILES comes first, the peptide text is derived from it. Side-chain parts run from the residue outwards. The star is where a group is joined. Cbz = O=C(OCc1ccccc1)*; Boc = CC(C)(C)OC(=O)*
property.label: TGI

Lab note: each compound below needs its TGI filled in.
1. Oc1oc(-c2ccccc2)nc1/C=C1/C=NN=N1
2. Cc1cc(S(=O)(=O)Nc2nc3ccsc3c(=O)n2Cc2ccccc2)c(S)cc1Cl
3. Nc1ccc(S(=O)(=O)c2ccc(N=[N+]([O-])c3ccc(S(=O)(=O)c4ccc(N)cc4)cc3)cc2)cc1
4. CC1=NN(c2cccc(Cl)c2)C2(C1)SCC(=O)N2c1nc2ccccc2s1 (configuration not stated)
5. CC(C)CC(NC(=O)OCc1ccccc1)C(=O)NCCCCC(NC(=O)C(CCCCNC(=O)C(CC(C)C)NC(=O)OCc1ccccc1)NC(=O)C(CCCCNC(=O)C(CC(C)C)NC(=O)OCc1ccccc1)NC(=O)C(CCCCNC(=O)C(CC(C)C)NC(=O)OCc1ccccc1)NC(=O)OC(C)(C)C)C(=O)O (configuration not stated) (Boc-K([Leu-Cbz])K([Leu-Cbz])K([Leu-Cbz])K([Leu-Cbz])-OH; configuration not given here)
6. Cc1cc(Cl)ccc1Nc1nc(C(F)(F)F)ccc1C(=O)N/N=C/c1ccc(N(C)C)cc1

Response:
["> 100 µM", "> 100 µM", "> 100 µM", "> 100 µM", "> 25 µM", "8.86 µM"]

Request: Would you mind telling me what TGI value was observed for `COc1ccc(-c2cc3nccn3c(Nc3ncccc3C(N)=O)n2)cc1OC` ?
Response: > 100 µM

====

So I've got a bunch of molecules here, and I need their TGI values.
# Test system: HL-60(TB) leukemia
# procedure.details: NCI tumour cell line growth inhibition, 48 h
Where a SMILES comes first, the peptide text is derived from it. Side-chain parts run from the residue outwards. The star is where a group is joined. Cbz = O=C(OCc1ccccc1)*; Boc = CC(C)(C)OC(=O)*

// known answers, use as guide
• CO[C@H]1/C=C/C[C@H](C)[C@@H](C)S(=O)(=O)NC(=O)c2ccc3c(c2)N(C[C@@H]2CC[C@H]21)C[C@@]1(CCCc2cc(Cl)ccc21)CO3 = 0.655 µM
• CC(C)(C)[Si](Nc1ccccc1)(c1ccccc1)c1ccccc1 = 31.3 µM
• Cc1ccc(C(=O)/C=C/N2CCN(c3cccc(C(F)(F)F)c3)CC2)cc1 = 60.2 µM

Lab note: each molecule below needs its TGI filled in.
1. CN(C(=O)C1CC1)C1C2CN3CCC(O2)C13 (centres undefined)
2. O=C(Nc1ccc(Cl)cc1)c1cc(S(=O)(=O)NC2=NC(c3ccccc3)c3cc(Cl)ccc3N2)c(SSc2cc(Cl)c(C(=O)Nc3ccc(Cl)cc3)cc2S(=O)(=O)NC2=NC(c3ccccc3)c3cc(Cl)ccc3N2)cc1Cl (centres undefined)
3. CNc1nc(=O)c(C#N)c(-c2ccc(C)cc2)s1
4. CC(C)CC(NC(=O)OCc1ccccc1)C(=O)NCCCCC(NC(=O)C(CCCCNC(=O)C(CC(C)C)NC(=O)OCc1ccccc1)NC(=O)C(CCCCNC(=O)C(CC(C)C)NC(=O)OCc1ccccc1)NC(=O)C(CCCCNC(=O)C(CC(C)C)NC(=O)OCc1ccccc1)NC(=O)OC(C)(C)C)C(=O)O (centres undefined) (Boc-K([Leu-Cbz])K([Leu-Cbz])K([Leu-Cbz])K([Leu-Cbz])-OH; configuration not given here)

Response:
> 100 µM
> 42.6 µM
> 100 µM
> 25 µM

Lab note: each molecule below needs its TGI filled in.
1. S=C1NC2=C(COC/C2=C\c2ccccc2Cl)C(c2ccccc2Cl)N1 (centres undefined)
2. COc1cccc2cc(N(C)c3nc(C)nc4ccsc34)ccc12
3. COc1cc2c(cc1-c1c(C)noc1C)ncc1[nH]c(=O)n([C@H](C)c3ccccn3)c12
4. COc1cc(C(=O)OC2CC(C)=CC[C@@]3(C)CC[C@](O)(C(C)C)C23)ccc1O (some centres undefined)

Response:
1. 34.4 µM
2. < 0.01 µM
3. > 100 µM
4. > 100 µM

Lab note: each molecule below needs its TGI filled in.
1. Cc1cc(NS(=O)(=O)c2ccc(NC(=O)c3cccc4c(NNc5ccc(S(N)(=O)=O)cc5)c5ccccc5nc34)cc2)no1
2. CCN1CCN(c2nc(C)cc(N(CCCNc3ccnc4cc(Cl)ccc34)Cc3ccco3)n2)CC1
3. COc1ccc(-c2c(C(C)=O)c(-c3ccccc3)n(C3OC(COC(C)=O)C(OC(C)=O)C(OC(C)=O)C3OC(C)=O)c(=S)c2C#N)cc1O (centres undefined)
4. Nc1nc(SCc2ccccc2[N+](=O)[O-])c2[nH]cnc2n1

Response:
["76.5 µM", "5.08 µM", "> 100 µM", "> 86.1 µM"]

Lab note: each molecule below needs its TGI filled in.
1. CN(C)CCN1C(=O)c2cccc3c(-c4ccc5ncn(C6CCCCC6)c5c4)ccc(c23)C1=O
2. Cc1cc2nc(NS(=O)(=O)c3cc(C)c(Cl)cc3S)[nH]c2cc1C
3. CC(=O)C1C(=O)C(=O)N(c2ccc([N+](=O)[O-])cc2Cl)C1=O (centres undefined)
4. CN(C)C(=O)CO/N=C1/C(c2c(O)[nH]c3ccccc23)=Nc2ccccc21

Response:
1: 10.5 µM; 2: > 100 µM; 3: > 100 µM; 4: > 100 µM

====

# Test system: SF-295 CNS
# procedure.details: NCI tumour cell line growth inhibition, 48 h
property.label: TGI

• O=C(Nc1ccccc1)OCc1nc2c([nH]1)C(=O)C=CC2=O = 33.1 µM
• COc1ccc(CC(C#N)c2cc(OC)c(OC)c(OC)c2)cc1 (centres undefined) = 0.0783 µM
• Cc1cc(S(=O)(=O)Nc2nc3ccsc3c(=O)n2Cc2ccccc2)c(S)cc1Cl = 98.7 µM
• O=C(Nc1cc([N+](=O)[O-])cc([N+](=O)[O-])c1)OC1C2CCC1C1OC1C2 (centres undefined) = > 50 µM
• O=C(OCc1c(-c2ccccc2)nn(-c2ccccc2)c1COC(=O)Oc1ccccc1)Oc1ccccc1 = > 100 µM

Lab note: each molecule below needs its TGI filled in.
1. Cc1cccc(NC(=O)Cc2nc3ccccc3s2)c1C
2. C=CC[C@@]1(C#N)C[C@H](C[C@]2(C#N)C[C@H](CCl)OC(C)(C)O2)OC(C)(C)O1
3. CN(C)C(=S)/N=c1\ssc(=S)n1Cc1ccccn1

Response:
1: > 100 µM; 2: > 100 µM; 3: > 65.7 µM

Lab note: each molecule below needs its TGI filled in.
1. Cn1c2cc(Cl)ccc2c2ccc3c(c21)C(=O)C=CC3=O
2. CC[C@@]1(O)C(=O)OCc2c1cc1n(c2=O)Cc2c-1nc1ccccc1c2/C=N\NC(=O)C(N)=O
3. CC(C)=CCC[C@@H](C)C1=C(O)C(Nc2ccccc2F)=C(C)C(=O)C1=O

Response:
> 100 µM
14.8 µM
30.4 µM

Lab note: each molecule below needs its TGI filled in.
1. CCc1ccccc1NC(=O)C1=C(C)NC(C)=C(C(=O)Nc2ccccc2CC)C1c1ccc(NC(C)=O)cc1
2. N#CNc1nc(C(=O)Nc2ccc(Cl)cc2)cc(-c2ccccc2)n1
3. C=C(C)C1CCC2(CO)C(O)CC3(C)C(CCC4C5(C)CCC(O)C(C)(C)C5CCC43C)C12 (centres undefined)
4. OC1NC2CC3NC(O)C(O)NC3CC2NC1O (centres undefined)
5. CCCCCCCCC[C@@H]1C[C@@H]2CCC3C(C(=O)OCCCCNC(=O)OCc4ccccc4)=C(C)NC(=N1)N32 (some centres undefined)

Response:
1: > 100 µM; 2: > 100 µM; 3: 10.3 µM; 4: > 100 µM; 5: 11.2 µM

====

# Test system: OVCAR-8 ovarian
# procedure.details: NCI tumour cell line growth inhibition, 48 h
property.label: TGI

// known answers, use as guide
• O=C(Nc1ccccc1)OCc1nc2c([nH]1)C(=O)C=CC2=O = 34 µM
• N#CCCCCC12C3C(=O)N(c4ccccc4)C(=O)C3ON1O[C@@H]1C(=O)N(c3ccccc3)C(=O)[C@@H]12 (stereo partly specified) = > 100 µM
• Cc1ccc(C(=O)NC(C)C)cc1N=NN(C)C = > 100 µM
• COC(=O)Nc1nc2ccc(NS(=O)(=O)c3ccc(F)cc3)cc2[nH]1 = > 100 µM

Lab note: each compound below needs its TGI filled in.
1. O=c1[nH]c2cc([N+](=O)[O-])c(N(CCO)CCO)c([N+](=O)[O-])c2[nH]1
2. O=C(O)CCc1nc(-c2ccccc2)c(-c2ccccc2)o1

Response:
["> 100 µM", "> 100 µM"]
